Assay: Plasma concentration in Sprague-Dawley rat at 5 mg/kg, po after 1 hr by LC-MS/MS analysis
Assay type: ADME, organism-based
Parameters: dose 5 mg/kg, route oral
reported-metric: concentration at 1 h (nM)
One number for each entry, in nM.

Field concentration at 1 h (entry "O=C(O)c1ccc(OC2CCN(C(=O)NCc3ccc(Cl)cc3Cl)CC2)cc1" ) reads 1700

* * *

Test: Solubility of the compound
Format: physicochemical
reported-metric: solubility (µg/mL)
Numbers only, in µg/mL.

O=C(NCc1ccc(Cl)cc1Cl)N1CCC(Oc2ncccn2)CC1	174

Field solubility (entry "O=C(NCc1ccc(Cl)cc1Cl)N1CCC(Oc2ccccc2)CC1" ) reads 3.4

* * *

Assay: Plasma concentration in Sprague-Dawley rat at 5 mg/kg, po after 2 hrs by LC-MS/MS analysis
Assay type: ADME, organism-based
Parameters: dose 5 mg/kg, route oral
reported-metric: concentration at 2 h (nM)
Give bare numbers, in nM.

Field concentration at 2 h (entry "O=C(O)c1ccc(OC2CCN(C(=O)NCc3ccc(Cl)cc3Cl)CC2)cc1" ) reads 2660
